The origin of these recorded values is patent US10392398B2.

Experiment: Pharmacokinetic analysis in rat plasma
Type: in vivo
Details: male, Sprague-Dawley, rat, plasma, iv, 4 mg/kg, IV 4 mg/kg, individual rats A, B, C
Recorded Endpoint: clearance (mL/min/kg)
Report the value in mL/min/kg with no unit label.

Tell me clearance reported for CCOc1cc(N(C)C)ccc1C1CC(=O)Nc2cc3c(cc21)OCO3 (stereo not shown) [FQI-34]
65

###

Assay: Pharmacokinetic analysis in rat plasma
Type: in vivo
Conditions: male, Sprague-Dawley, rat, plasma, po, 100 mg/kg, rat plasma, PO 100 mg/kg, AVERAGE; read-out: Cmax
Recorded Endpoint: Cmax (ng/mL)
Quick reminder: number only, in ng/mL, skip the unit.

Identify measured Cmax corresponding to CCOc1cc(N(C)C)ccc1C1CC(=O)Nc2cc3c(cc21)OCO3 (stereo not shown)
526
